Molecular target: human PDE2A1 (Homo sapiens, UniProt O00408)
Construct: GST; purchased BPS Bioscience (San Diego, Calif.) 60020; host or cells: insect cells
Sequence (O00408 1-920 isoform O00408-2): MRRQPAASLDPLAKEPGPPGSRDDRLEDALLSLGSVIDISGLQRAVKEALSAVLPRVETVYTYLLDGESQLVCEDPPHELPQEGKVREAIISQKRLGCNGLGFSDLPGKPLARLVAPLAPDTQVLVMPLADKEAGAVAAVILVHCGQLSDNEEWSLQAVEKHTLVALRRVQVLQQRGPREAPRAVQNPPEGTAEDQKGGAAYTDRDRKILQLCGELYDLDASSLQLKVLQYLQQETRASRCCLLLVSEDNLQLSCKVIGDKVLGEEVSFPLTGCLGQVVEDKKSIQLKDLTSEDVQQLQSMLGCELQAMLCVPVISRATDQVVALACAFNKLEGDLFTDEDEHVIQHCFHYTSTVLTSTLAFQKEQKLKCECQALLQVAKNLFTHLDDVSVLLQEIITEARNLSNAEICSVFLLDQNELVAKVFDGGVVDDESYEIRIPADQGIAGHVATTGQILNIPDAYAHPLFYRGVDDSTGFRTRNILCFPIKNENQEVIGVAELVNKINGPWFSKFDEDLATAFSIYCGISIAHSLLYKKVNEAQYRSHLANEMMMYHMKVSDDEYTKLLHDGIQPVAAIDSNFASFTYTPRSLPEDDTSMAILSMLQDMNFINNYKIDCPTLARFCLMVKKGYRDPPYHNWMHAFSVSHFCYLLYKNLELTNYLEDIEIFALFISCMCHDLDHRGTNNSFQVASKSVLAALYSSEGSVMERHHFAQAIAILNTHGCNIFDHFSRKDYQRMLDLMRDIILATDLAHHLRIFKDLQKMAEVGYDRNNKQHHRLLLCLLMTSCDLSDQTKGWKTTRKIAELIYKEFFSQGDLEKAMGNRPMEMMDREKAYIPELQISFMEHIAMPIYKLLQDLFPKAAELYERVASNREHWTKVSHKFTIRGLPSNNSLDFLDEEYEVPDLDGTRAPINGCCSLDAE
Test: PDE2 IMAP FP inhibition assay, human enzyme (PDE selectivity panel format)
Assay type: biochemical
Details: Lab A; read-out: Human PDE2 Ki (nM) Lab A
Recorded log10(Ki) values for a group of molecules are listed next.
Reminder: these figures are log10 of reported Ki, in nM before transformation.

Recorded results for 5 molecules are shown here.
{"columns": ["MOLECULE", "log10(Ki)"],
 "data": [
  ["CCc1ccc(C(CO)c2cnn(-c3cc(=O)[nH]c(C)n3)c2)c(F)c1 (single isomer, unassigned) [Example 115]", 2.21],
  ["CC(c1ccc(C(F)(F)F)cc1F)n1cc(-c2cc(=O)[nH]c(Cc3ccccc3)n2)cn1 (stereo not shown) [Example 35]", 1.78],
  ["COc1ccc(Cc2nc(-c3cnn(C(C)c4ccc(S(F)(F)(F)(F)F)cc4)c3)cc(=O)[nH]2)cc1OC (single isomer, unassigned) [Example 64]", 0.86],
  ["Cc1nc(-c2cnn([C@H](C)c3c(F)cc(C(F)(F)F)cc3F)c2)cc(=O)[nH]1 (single isomer, unassigned) [Example 8]", 2.03],
  ["Cc1nc(-c2cnn(C(c3ccc(C(F)(F)F)cc3F)C(C)C)c2)cc(=O)[nH]1 (stereo not shown) [Example 34]", 1.65]
]}

Any idea what its log10(Ki) is? The molecule is Cc1nc(-c2cnn(C(CO)c3ccc(C(F)(F)F)cc3Cl)c2)cc(=O)[nH]1 (single isomer, unassigned) [Example 123]
0.81

Any idea what its log10(Ki) is? The molecule is Cc1nc(-c2cnn(C(C)c3ccc(C4CC4)cc3Cl)c2)cc(=O)[nH]1 (single isomer, unassigned) [Example 108]
2.55

---

Molecular target: human PDE2A1 (Homo sapiens, UniProt O00408)
Construct: GST; purchased BPS Bioscience (San Diego, Calif.) 60020; host or cells: insect cells
Experiment: PDE2 IMAP FP inhibition assay, human enzyme (PDE selectivity panel format)
Assay type: biochemical
Conditions: Lab B; read-out: Human PDE2 Ki (nM) Lab B
ATTRIBUTE MEASURED: Ki (nM)
Number in nM, nothing else.

{"columns": ["MOLECULE", "UNITS TEXT", "Ki"],
 "data": [
  ["CCCC(c1ccc(C(F)(F)F)cc1)n1cc(-c2cc(=O)[nH]c(C)n2)cn1 (centres unmarked) [Example 154]", "nM", 265],
  ["Cc1nc(-c2cnn(C(C)c3ccc(OC(F)(F)F)cc3)c2)cc(=O)[nH]1 (single isomer, unassigned) [Example 127]", "nM", 103],
  ["Cc1nc(-c2ccn(C(C)c3ccc(C(F)(F)F)cc3)n2)cc(=O)[nH]1 (single isomer, unassigned) [Example 78]", "nM", 255],
  ["Cc1nc(-n2cc([C@](C)(O)c3ccc(C(F)(F)F)cc3F)cn2)cc(=O)[nH]1 (single isomer, unassigned) [Example 16]", "nM", 47.1]
]}

Any idea what its Ki is? The molecule is CCC(c1ccc(C(F)(F)F)cc1)c1cnn(-c2cc(=O)[nH]c(C)n2)c1 (centres unmarked) [Example 129]
141

Any idea what its Ki is? The molecule is Cc1nc(-c2cnn(C(C)c3ccc(C(F)(F)F)cc3F)c2)cc(=O)[nH]1 (single isomer, unassigned) [Example 135]
91.9

Any idea what its Ki is? The molecule is Cc1nc(-n2cc([C@H](C)c3ccc(C(F)(F)F)cc3)cn2)cc(=O)[nH]1 (single isomer, unassigned) [Example 3]
40.3

---

Biological target: Rhesus PDE2A3 (Macaca mulatta, UniProt B3VTJ2)
Construct: made in house; host or cells: AD293 cells, transient transfection, pcDNA3.3-TOPO; lysate supernatant used as enzyme
Sequence (B3VTJ2 1-941): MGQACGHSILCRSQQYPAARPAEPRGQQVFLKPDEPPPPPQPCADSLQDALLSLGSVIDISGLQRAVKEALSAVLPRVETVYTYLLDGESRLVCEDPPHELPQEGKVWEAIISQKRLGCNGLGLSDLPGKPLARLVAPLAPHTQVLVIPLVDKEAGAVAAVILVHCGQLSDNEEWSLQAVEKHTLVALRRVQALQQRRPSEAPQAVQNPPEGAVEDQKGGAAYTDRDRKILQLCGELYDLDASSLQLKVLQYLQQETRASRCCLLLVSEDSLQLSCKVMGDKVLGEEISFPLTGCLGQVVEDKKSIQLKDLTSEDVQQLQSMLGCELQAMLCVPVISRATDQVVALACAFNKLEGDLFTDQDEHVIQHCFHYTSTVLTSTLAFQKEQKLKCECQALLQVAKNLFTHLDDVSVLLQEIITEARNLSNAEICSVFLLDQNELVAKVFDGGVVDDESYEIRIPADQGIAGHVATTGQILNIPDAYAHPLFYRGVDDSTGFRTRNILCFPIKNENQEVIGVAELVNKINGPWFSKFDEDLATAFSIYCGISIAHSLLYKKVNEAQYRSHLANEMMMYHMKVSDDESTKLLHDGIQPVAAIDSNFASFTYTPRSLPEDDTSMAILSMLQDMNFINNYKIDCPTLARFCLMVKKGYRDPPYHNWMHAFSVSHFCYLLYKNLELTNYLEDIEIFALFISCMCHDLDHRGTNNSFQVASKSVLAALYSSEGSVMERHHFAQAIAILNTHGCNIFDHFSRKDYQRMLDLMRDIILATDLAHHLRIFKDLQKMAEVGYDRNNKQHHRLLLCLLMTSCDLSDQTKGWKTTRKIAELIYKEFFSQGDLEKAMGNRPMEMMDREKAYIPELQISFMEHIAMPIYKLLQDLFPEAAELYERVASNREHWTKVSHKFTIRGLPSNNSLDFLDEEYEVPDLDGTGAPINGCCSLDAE
Assay: PDE2 fluorescence polarization (IMAP FP) inhibition assay, rhesus enzyme
Assay type: biochemical, rhesus macaque
Conditions: Lab A; read-out: Rhesus PDE2 Ki (nM) Lab A
ATTRIBUTE MEASURED: Ki (nM)
Number in nM, nothing else.

{"columns": ["COMPOUND", "TEST TARGET", "UNITS TEXT", "Ki"],
 "data": [
  ["CCc1ccc(C(C)n2cc(-c3cc(=O)[nH]c(C)n3)cn2)c(F)c1 (single isomer, unassigned) [Example 102]", "Rhesus PDE2A3 (Macaca mulatta, UniProt B3VTJ2)", "nM", 212],
  ["CC(c1ccc(C(F)(F)F)cc1F)n1cc(-c2cc(=O)[nH]c(C3CC3)n2)cn1 (stereo not shown)", "Rhesus PDE2A3 (Macaca mulatta, UniProt B3VTJ2)", "nM", 25]
]}

Any idea what its Ki is? The compound is Cc1ccc(C(C)n2cc(-c3cc(=O)[nH]c(C)n3)cn2)c(Cl)c1 (single isomer, unassigned) [Example 148]
47.9

---

Target: Rhesus PDE2A3 (Macaca mulatta, UniProt B3VTJ2)
Construct: made in house; host or cells: AD293 cells, transient transfection, pcDNA3.3-TOPO; lysate supernatant used as enzyme
Sequence (B3VTJ2 1-941): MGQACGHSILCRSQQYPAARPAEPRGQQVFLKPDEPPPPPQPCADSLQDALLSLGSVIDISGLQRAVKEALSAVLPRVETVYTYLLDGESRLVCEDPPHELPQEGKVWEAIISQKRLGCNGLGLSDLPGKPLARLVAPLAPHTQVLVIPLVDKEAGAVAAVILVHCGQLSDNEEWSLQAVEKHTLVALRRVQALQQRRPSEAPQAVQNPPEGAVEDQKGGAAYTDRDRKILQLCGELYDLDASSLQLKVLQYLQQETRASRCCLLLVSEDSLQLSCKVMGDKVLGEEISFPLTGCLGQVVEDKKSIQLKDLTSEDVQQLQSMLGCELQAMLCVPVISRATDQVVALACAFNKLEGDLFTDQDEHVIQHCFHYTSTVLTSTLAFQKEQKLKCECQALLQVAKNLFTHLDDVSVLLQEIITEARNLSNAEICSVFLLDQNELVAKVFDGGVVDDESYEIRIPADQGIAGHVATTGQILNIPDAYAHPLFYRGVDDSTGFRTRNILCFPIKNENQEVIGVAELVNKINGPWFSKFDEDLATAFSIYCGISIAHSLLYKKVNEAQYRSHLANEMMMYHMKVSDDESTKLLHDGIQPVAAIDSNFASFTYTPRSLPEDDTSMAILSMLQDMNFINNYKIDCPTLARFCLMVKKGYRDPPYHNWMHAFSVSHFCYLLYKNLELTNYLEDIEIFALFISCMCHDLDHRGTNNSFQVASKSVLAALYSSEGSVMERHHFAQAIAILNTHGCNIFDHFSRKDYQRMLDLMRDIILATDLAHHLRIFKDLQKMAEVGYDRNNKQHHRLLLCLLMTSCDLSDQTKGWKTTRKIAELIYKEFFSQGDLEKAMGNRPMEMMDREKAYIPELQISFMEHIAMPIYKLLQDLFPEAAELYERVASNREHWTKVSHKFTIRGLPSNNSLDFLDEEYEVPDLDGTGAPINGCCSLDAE
Assay: PDE2 fluorescence polarization (IMAP FP) inhibition assay, rhesus enzyme
Assay type: biochemical, rhesus macaque
Details: Lab A; read-out: Rhesus PDE2 Ki (nM) Lab A
ATTRIBUTE MEASURED: Ki (nM)
Number in nM, nothing else.

Recorded results for 5 compounds are shown here.
{"columns": ["COMPOUND", "TEST TARGET", "VAL"],
 "data": [
  ["Cc1nc(-c2cnn(C(C)c3ccc(C4CC4)cc3C)c2)cc(=O)[nH]1 (single isomer, unassigned) [Example 93]", "Rhesus PDE2A3 (Macaca mulatta, UniProt B3VTJ2)", 706],
  ["CC(c1ccc(C(F)(F)F)cc1F)n1cc(-c2cc(=O)[nH]c(Cc3ccccc3)n2)cn1 (centres unmarked) [Example 35]", "Rhesus PDE2A3 (Macaca mulatta, UniProt B3VTJ2)", 38.3],
  ["COc1cccc(Cc2nc(-c3cnn(C(C)c4ccc(C(F)(F)F)cc4F)c3)cc(=O)[nH]2)c1 (single isomer, unassigned) [Example 141]", "Rhesus PDE2A3 (Macaca mulatta, UniProt B3VTJ2)", 25.6],
  ["Cc1nc(-c2cnn(C(C)c3ccc(OC(F)F)cc3C)c2)cc(=O)[nH]1 (single isomer, unassigned) [Example 90]", "Rhesus PDE2A3 (Macaca mulatta, UniProt B3VTJ2)", 150],
  ["CCc1ccc(C(C)n2cc(-c3cc(=O)[nH]c(C)n3)cn2)c(F)c1 (single isomer, unassigned) [Example 101]", "Rhesus PDE2A3 (Macaca mulatta, UniProt B3VTJ2)", 25.4]
]}

Any idea what its Ki is? The compound is COc1cc(Cc2nc(-c3cnn(C(C)c4ccc(C(F)(F)F)cc4F)c3)cc(=O)[nH]2)ccc1F (single isomer, unassigned) [Example 142]
3.3
